Reference source for all entries: patent US20090226442A1

This section presents binders with their documented EC50 values.
# experimental system: T1, human RON (recepteur d'origine nantais, MST1R), full length, expressed on cells (human, UniProt Q04912 25-1400)
# T1 construct: On SW480 tumor cells it is endogenous; also called hRON; SW480-RON cells
# test name: flow cytometry on SW480 tumor cells, 4P fit (apparent affinity)
Hi! Could you send only the number? It should be in nM, unit omitted.

binder	reading unit	EC50
1P4A12 murine monoclonal anti-RON antibody (antibody, V domains shown, Whole murine hybridoma antibody; kappa light chain; also called 1P4A12.2; 1.P4A12.2) VH: EVQLQQSGPELVKPGASMKISCKASGYSFTGYTMNWVKQSHGKKLEWIGLINPYNGGTIYNQKFKGKATLTVDKSSSTAYMELLSLTSEDSAVYYCARWLRRGGYAMDYWGQGASVTVSS VL: DILLTQSPAILSVSPGERVSFSCRASQSIGTSIHWYQQRTNGSPRLLIKFASESISGIPSRFSGSGSGTDFTLSINSVESEDIADYYCQQSDSWPLTFGAGTKLEVK	nM	0.07
1P3B2 murine monoclonal anti-RON antibody (antibody, V domains shown, Whole murine hybridoma antibody; kappa light chain; also called 1P3B2.2; PTA-8813) VH: EVQLQQSGPELEKPGASVKISCKASGYSFTGYNMNWVKQSNGESLEWIGDIDPYYGGTRYNQKFKGKATLTVDKSSSTAYMQLKSLTSEDSAVYYCAREGRGFAYWGQGTLVTVSA VL: DIQMTQSPASLSASVGETVTITCRASENIYSYLAWYQKKQGKSPQLLVYNAKTSVEGVPSRFSGSGSGIQFSLKINSLQPEDFGSYYCHCQHHYGTLPTFGGGTKLEIK	nM	0.04
1P4A3 murine monoclonal anti-RON antibody (antibody, V domains shown, Whole murine hybridoma antibody; kappa light chain; also called 1P4A3.3; 1.P4A3.3) VH: EVQLQQSGPELEKPGASVMISCKASGYSFTGYNMNWVKQSTGKSLEWIGDIDPYYDGTRYNQKFKGKATLTADKSSSTAYMQLKSLTSEDSAVYYCTREGRGFAYWGQGTLVTVSA VL: DIQMTQSPASLSASVGETVTITCRASENIYSYLAWYQQKQGKSPQLLVYNAKTLAGGVPSRFSGSGSGTQFSLKINSLQPEDFGSYYCQHYYGTPLTFGAGTKLELK	nM	0.07

Query :: # EC50 lookup, item 1P5B10 murine monoclonal anti-RON antibody (antibody, V domains shown, Whole murine hybridoma antibody; kappa light chain; also called 1P5B10.3; 1.P5B10.3.10) VH: EVQLQQSGPELVKPGASMKISCRAAGFSFTGYTMNWVKQSHGKSLEWIGLINLNNGGTSHNQKFKGKATLTVDKSSSTAYMELLSLTSEDSAVYYCARWLRRGGYAMDYWGQGISVTVSS VL: DILLTQSPAILSVSPGERVSFSCRASQNIGTSIHWYQQRTNGSPRLLIKYASESISGIPSRFSGSGSGTDFTLSINSVESEDIADYYCQQSDSWPLTFGAGTKLELK
Result :: 0.34
